# α (cooperativity factor) listing for each entry below
target: OR10J5 (Homo sapiens, UniProt Q8NHC4, R233W); construct: Lucy (cleavable leucine-rich signal peptide) (N); FLAG (N); Rho (first 20 aa of bovine rhodopsin) (N); expressed in transfected cells; assay: OR10J5 LYRAL® dose-response at serial enhancer concentrations, allosteric EC50 shift model; format: cell-based; settings: LYRAL®; enhancer 0 to 600 μM
Sequence (Q8NHC4 whole entry R233W): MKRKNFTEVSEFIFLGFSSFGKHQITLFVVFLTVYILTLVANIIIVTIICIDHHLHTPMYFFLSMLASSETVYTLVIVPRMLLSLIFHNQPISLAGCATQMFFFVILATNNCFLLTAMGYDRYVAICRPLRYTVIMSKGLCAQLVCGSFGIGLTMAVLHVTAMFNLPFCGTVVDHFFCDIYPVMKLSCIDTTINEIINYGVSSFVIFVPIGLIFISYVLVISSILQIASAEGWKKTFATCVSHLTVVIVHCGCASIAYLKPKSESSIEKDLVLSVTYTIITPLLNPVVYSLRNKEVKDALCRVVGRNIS

Example compounds with recorded α (cooperativity factor):
CC1=CC[C@H](C(C)CC=O)CC1 (stereo partly shown) :: 7.5
CC(C=O)Cc1ccc2c(c1)OCO2 (stereo not shown) :: 6.3
CC(C)=CCCC(C)C=O (stereo not shown) :: 4.1

Could you now look at the following compound, please?
Request: Write down the reported α (cooperativity factor) of "CCCCCCC=O" , test system: OR10J5 (Homo sapiens, UniProt Q8NHC4, R233W).
Result: 3.2
